target: Rap guanine nucleotide exchange factor 3 (Homo sapiens)
assay.comment: Confirmatory qHTS for agonist of cAMP-regulated guanine nucleotide exchange factor 3 (EPAC1) (AID 1645881);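 also: EPAC1 catalysed release of BODIPY-GDP from Rap1B seen as fluorescence loss; nearly all actives have a fitted effect of over 75% in size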
study.conditions: EPAC1 Rap1B BODIPY-GDP exchange fluorescence; series mostly up to 154 µM
Records with an inconclusive call do not appear. Calls of active or inactive are those of the source. Calls follow the shape of the dose curve; as a rule, active = well fitted activation curve with a large enough effect; inconclusive = small, poorly fitted or top-dose-only effect; inactive = no such curve, though single readings can be large or run the other way.
// one of active, inactive, no free text

As a guide, the following entries are already answered.
[
  {
    "molecule": "C=CCn1c(NC(=O)c2ccccc2Cl)c(C#N)c2nc3ccccc3nc21",
    "label.value": "inactive"
  },
  {
    "molecule": "CN1C(=O)Cc2cc(S(=O)(=O)N3CCN(c4ccccc4F)CC3)ccc21",
    "label.value": "inactive"
  },
  {
    "molecule": "Nn1cnnc1N/N=C/c1ccc(Cl)c([N+](=O)[O-])c1",
    "label.value": "inactive"
  },
  {
    "molecule": "Cc1cccc(NC(=S)NC(=O)c2oc3ccccc3c2C)n1",
    "label.value": "inactive"
  },
  {
    "molecule": "Cc1ccc(NC(=O)C2CCCN2S(=O)(=O)c2cccc3nsnc23)c(Br)c1 (stereo not drawn)",
    "label.value": "inactive"
  },
  {
    "molecule": "COc1cc2c(cc1OC)C(c1ccccc1Cl)N(C)CC2 (stereo not drawn)",
    "label.value": "inactive"
  },
  {
    "molecule": "CCCCOC(=O)Nc1ccc(S(=O)(=O)Nc2nccs2)cc1",
    "label.value": "inactive"
  },
  {
    "molecule": "COC(=O)c1cc2oc(C)cc2n1Cc1ccccc1Cl",
    "label.value": "inactive"
  },
  {
    "molecule": "COc1ncc(-c2c(-c3ccccc3OC)sc3ccccc23)cn1",
    "label.value": "inactive"
  },
  {
    "molecule": "CSCCC(NS(=O)(=O)c1ccc2c(c1)oc(=O)n2C)C(=O)NC1CCCc2ccccc21 (stereo not drawn)",
    "label.value": "inactive"
  }
]

What is the recorded call for this molecule in the test? `CCOc1ccc(S(=O)(=O)N2CCCCC2)c2ccccc12`
inactive

Short answer needed: outcome of this test for Cc1nc2sc(C(c3cccs3)N3CCN(c4ccccc4)CC3)c(O)n2n1 (stereo not drawn) ?
inactive

Can you look up the reported call for CCCCN1C(=O)C(CC(=O)NC2CCCCC2)CC(C(=O)N2CCCCCC2)=C1C (stereo not drawn) for me?
inactive

Could you kindly confirm the outcome this assay logged for `CC1=Nc2ccccc2/C1=C/c1sc(=S)n(-c2cccc(C(=O)O)c2)c1O` ?
inactive

Recorded test call requested for `Cn1c(=O)c2c(nc(N3CCOCC3)n2CCSc2ncccn2)n(C)c1=O`
inactive

So what was the verdict on `Cc1ccc(S(=O)(=O)N2[C@@H](c3ccc(Br)cc3)C(C(=O)O)=CC[C@H]2c2ccc(C(C)C)cc2)cc1` in this test?
inactive

Recorded test outcome, item `COc1ccc(C(=O)Nc2cc(OC)c(Cl)cc2OC)cc1`
inactive

What is the recorded call for this molecule in the test? `C=CCn1c(N)c(S(=O)(=O)c2cccs2)c2nc3ccccc3nc21`
inactive

Check the results log: what was the call for `CN(C)CC/C=C1/c2ccccc2Sc2c(O)cc(Cl)cc21` ?
inactive

Tell me the assay call for `O=C(O)CCc1ccc(-c2ccccc2)n1-c1cccc(Br)c1` please.
inactive

Which outcome did this test record for the molecule `CCSc1nnc(NC(=O)C2CCN(S(=O)(=O)c3ccccc3C(F)(F)F)CC2)s1` ?
inactive

Dear colleague, could you share the recorded outcome for CC(=O)c1ccc(N2CCN(C(=O)C3CCCN(S(=O)(=O)c4c(C)[nH]c(=O)[nH]c4=O)C3)CC2)cc1 (stereo not drawn) when you have a moment?
inactive

I'd appreciate the recorded outcome for `CCc1nc2c(OCc3ccc(OC(F)F)cc3)cccn2c1N(C)C(=O)c1ccc(OC)cc1` from this test.
inactive
